experiment: rat microsomal stability (RLM); settings: microsomal half-life
Reported Metab. Stabil. (m) by item:

Study these solved cases before continuing.
CC1=C(C(=O)Nc2cc(C(=O)O)ccn2)C(c2ccccc2Cl)N=C(Nc2nc3c(Cl)cccc3o2)N1 (stereo not drawn) [Compound 11] = >30 m
CC1=C(C(=O)Nc2cc(CO)ccn2)C(c2ccccc2Cl)N=C(Nc2nc3ccc(F)cc3o2)N1 (stereo not drawn) [Compound 37] = >30 m
CC1=C(C(=O)Nc2nnc(-c3cccnc3)s2)C(c2ccccc2Cl)N=C(Nc2nc3cc(N)ccc3o2)N1 (stereo not drawn) [Compound 101] = >30 m
CC1=C(C(=O)Nc2cc(C(=O)O)ccc2F)C(c2ccccc2Cl)N=C(Nc2nc3ccc(F)cc3o2)N1 (stereo not drawn) [Compound 30] = >30 m
CC1=C(C(=O)Nc2cc(C(=O)O)ccn2)C(c2ccc(-c3ccc(C(F)(F)F)cc3)cc2Cl)N=C(Nc2nc3ccc(F)cc3o2)N1 (stereo not drawn) [Compound 68] = >30 m

Enquiry: Item under review: CC1=C(C(=O)Nc2cc(C(=O)O)ccn2)C(c2ccc(C)cc2Cl)N=C(Nc2nc3ncccc3o2)N1 (stereo not drawn) [Compound 102] . Reported Metab. Stabil. (m)?
Return: >30 m

Enquiry: Entry to check: CC1=C(C(=O)Nc2cc(C(=O)O)ccn2)C(c2ccc(C)cc2Cl)N=C(Nc2nc3cccnc3o2)N1 (stereo not drawn) [Compound 108]
Return: >30 m

Enquiry: Entry to check: CC1=C(C(=O)Nc2cc(C(N)=O)ccn2)C(c2ccccc2Cl)N=C(Nc2nc3ccc(F)cc3o2)N1 (stereo not drawn) [Compound 38]
Return: >30 m

Enquiry: Entry to check: CC1=C(C(=O)NCc2cnn(C)c2)C(c2ccc(C)cc2Cl)N=C(Nc2nc3cccnc3o2)N1 (stereo not drawn) [Compound 107]
Return: 3.664 m

Enquiry: Entry to check: CC1=C(C(=O)Nc2cc(C(=O)O)ccn2)[C@H](c2ccc(C)cc2Cl)N=C(Nc2nc3ccc(F)cc3o2)N1 [Compound 55]
Return: >30 m

Enquiry: Entry to check: CC1=C(C(=O)Nc2cc(C(=O)O)ccn2)[C@@H](c2ccccc2Cl)N=C(Nc2nc3cccc(N)c3o2)N1 [Compound 25]
Return: >30 m

* * *

target: hGALK1m (Homo sapiens, UniProt P51570, E253A/K252A); construct: made in house; host or cells: E. coli HMS174; test: in vitro hGALK1 activity assay of the structure-based optimisation (Example 12, Tables 17-20); format: biochemical; conditions: Tables 18-19 and text of Example 12
Sequence (P51570 whole entry K252A/E253A): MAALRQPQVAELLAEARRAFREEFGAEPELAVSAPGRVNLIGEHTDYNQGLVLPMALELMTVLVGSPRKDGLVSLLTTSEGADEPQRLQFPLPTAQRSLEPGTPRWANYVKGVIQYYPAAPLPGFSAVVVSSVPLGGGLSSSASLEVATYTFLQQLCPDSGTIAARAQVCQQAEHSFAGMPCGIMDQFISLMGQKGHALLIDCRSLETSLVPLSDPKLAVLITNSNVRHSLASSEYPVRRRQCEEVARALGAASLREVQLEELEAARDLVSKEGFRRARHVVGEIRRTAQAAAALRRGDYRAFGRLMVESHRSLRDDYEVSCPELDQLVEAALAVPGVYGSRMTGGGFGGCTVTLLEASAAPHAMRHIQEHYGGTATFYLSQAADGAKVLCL
observedProperty: IC50 (µM)

Study these solved cases before continuing.
COc1cccc(C2N=C(Nc3nc4ccc(F)cc4o3)NC(C)=C2C(=O)Nc2cc(C(=O)O)ccn2)c1Cl (stereo not drawn) [Compound 52] = 5.4
CC1=C(C(=O)Nc2cc(C(=O)O)ccn2)C(c2ccccc2Cl)N=C(Nc2nc3cc(N)ccc3o2)N1 (stereo not drawn) [Compound 12] = 5.5
CC1=C(C(=O)Nc2cc(C(=O)O)ccn2)C(c2ccccc2Cl)N=C(Nc2nc3ccc(Cl)cc3o2)N1 (stereo not drawn) [Compound 14] = 2.25
CC1=C(C(=O)Nc2cc(C(=O)O)ccn2)C(c2ccccc2Cl)N=C(Nc2nc3c(C)cccc3o2)N1 (stereo not drawn) [Compound 18] = 5.5
CC1=C(C(=O)Nc2cc(C(=O)O)ccn2)C(c2ccccc2Cl)N=C(Nc2nc3cc(F)ccc3o2)N1 (stereo not drawn) [Compound 13] = 3.6

I: CC1=C(C(=O)Nc2cc(C(=O)O)ccn2)C(c2ccccc2Cl)N=C(Nc2nc3c(Cl)cccc3o2)N1 (stereo not drawn) [Compound 11]
II: CC1=C(C(=O)Nc2cc(C(=O)O)ccn2)C(c2cccc(Cl)c2Cl)N=C(Nc2nc3ccc(F)cc3o2)N1 (stereo not drawn) [Compound 49]
III: CC1=C(C(=O)Nc2cc(C(=O)O)ccn2)C(c2ccccc2Cl)N=C(Nc2nc3cccc(Cl)c3o2)N1 (stereo not drawn) [Compound 17]
IV: CC1=C(C(=O)Nc2cc(C(=O)O)ccn2)C(c2ccccc2Cl)N=C(Nc2nc3ccccc3o2)N1 (stereo not drawn) [R-enantiomer of Compound 194]
Enquiry: Please list these in order of increasing IC50. Thank you! Labels, requested order.
Return: III, II, I, IV

I: CC1=C(C(=O)Nc2cc(C(=O)O)ccn2)C(c2ccccc2Cl)N=C(Nc2nc3ccc(C)cc3o2)N1 (stereo not drawn) [Compound 6]
II: CC1=C(C(=O)Nc2cc(C(=O)O)ccn2)C(c2ccccc2Cl)N=C(Nc2nc3c(F)cccc3o2)N1 (stereo not drawn) [Compound 8]
III: CC1=C(C(=O)Nc2cc(C(=O)O)ccn2)C(c2ccccc2Cl)N=C(Nc2nc3cccc(F)c3o2)N1 (stereo not drawn) [Compound 10]
IV: COc1ccc2oc(NC3=NC(c4ccccc4Cl)C(C(=O)Nc4cc(C(=O)O)ccn4)=C(C)N3)nc2c1 (stereo not drawn) [Compound 5]
Enquiry: Please list these in order of increasing IC50. Thank you! Labels, requested order.
Return: III, IV, II, I
(III: 1 µM, IV: 2 µM, II: 3.3 µM, I: 6.9 µM)

I: CC1=C(C(=O)NCc2cn(C)cn2)C(c2ccccc2Cl)N=C(Nc2nc3ccccc3o2)N1 (racemic) [Compound 233]
II: CC1=C(C(=O)Nc2cc(C(=O)O)ccn2)C(c2cccc(C(F)(F)F)c2Cl)N=C(Nc2nc3ccc(F)cc3o2)N1 (stereo not drawn) [Compound 51]
Enquiry: # argmax over IC50 for candidates I and II To answer, give the label that identifies your chosen option.
Return: II

I: CC1=C(C(=O)Nc2cc(C(=O)O)ccn2)C(c2cccc(C(N)=O)c2)N=C(Nc2nc3ccc(F)cc3o2)N1 (stereo not drawn) [Compound 76]
II: CC1=C(C(=O)Nc2ccccc2)C(c2ccccc2Cl)N=C(Nc2nc3ccccc3o2)N1 (stereo not drawn) [Compound 137]
III: CC1=C(C(=O)Nc2cc(C(=O)O)ccn2)C(c2cccc(F)c2Cl)N=C(Nc2nc3ccc(F)cc3o2)N1 (stereo not drawn) [Compound 48]
Enquiry: Please list these in order of increasing IC50. Thank you! Labels, requested order.
Return: II, III, I
